meta.source: patent US20250051449A1

Listing: mouse CD112/CD112R blocking ELISA max inhibition (%) of selected binders
target-or-test-system: T1, mouse CD112R-hIgG4 fusion protein (mouse; human)
T1 construct: also called soluble mouse CD112R; soluble murine CD112R
experiment-notes: blocking ELISA: coated mouse CD112, antibody plus mouse CD112R-hIgG4 (2 ug/mL)
Reply with just the number (in %).

Solved entries (count: 2):
>  <binder>
Antibody 58 (antibody, V domains shown, Purified as IgG; compared with an IgG1 isotype control and detected with anti-human IgG Fc; also called antibody clone number 58; clone 58) VH: EVQLVESGGGLVQPGRSLRLSCTASGFTFGDYAMSWFRQAPGKGLEWVGFIGSKFYGGETEYTASVKGRFTISRDGSKSIAYLQMNSLKTEDTAVYYCARGPRRYTYGMDVWGQGTTVTVSS VL: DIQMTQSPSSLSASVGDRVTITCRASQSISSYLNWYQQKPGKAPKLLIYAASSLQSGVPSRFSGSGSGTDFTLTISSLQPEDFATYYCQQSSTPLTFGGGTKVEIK

>  <measured-number>
85.7

$$$$
>  <binder>
Antibody 34 (antibody, V domains shown, Purified as IgG; compared with an IgG1 isotype control and detected with anti-human IgG Fc; also called antibody clone number 34; clone 34) VH: QVQLVQSGAEVKKPGSSVKVSCKASGGTFSSAAISWVRQAPGQGLEWMGGIFPISGHANYAQKFQGRVTITADESTSTAYMELSSLRSEDTAVYYCARDTGRGYTRHFWFDPWGQGTLVTVSS VL: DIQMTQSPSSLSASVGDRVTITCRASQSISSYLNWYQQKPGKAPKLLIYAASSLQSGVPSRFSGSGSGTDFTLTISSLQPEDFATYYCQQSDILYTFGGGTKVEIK

>  <measured-number>
20.3

$$$$

We now examine a further binder.
[in] Please list mouse CD112/CD112R blocking ELISA max inhibition (%) recorded for the binder Antibody 36 (antibody, V domains shown, Purified as IgG; compared with an IgG1 isotype control and detected with anti-human IgG Fc; also called antibody clone number 36; clone 36) VH: QVQLVQSGAEVKKPGSSVKVSCKASGGTFATYAISWVRQAPGQGLEWMGGIFPLSGTANYAQKFQGRVTITADESTSTAYMELSSLRSEDTAVYYCARDTGRGYTRHFWFDPWGQGTLVTVSS VL: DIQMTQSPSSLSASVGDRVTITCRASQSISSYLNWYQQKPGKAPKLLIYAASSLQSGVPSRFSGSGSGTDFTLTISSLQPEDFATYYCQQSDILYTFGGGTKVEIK
[out] 41.6
